B1: KRT13 (parent)
chain: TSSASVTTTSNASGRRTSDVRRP

Variants of: B1
Assay: protein stability index of a GFP-peptide fusion (GPS, HEK-293T) (PSI 1-6); higher = more stable;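 further: lentivirally expressed fusions sorted by FACS into six bins by GFP to DsRed ratio, PSI derived from sequencing read proportions per bin multiplied by bin number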
Settings: c terminus: native
# label = y if protein stability index >= 3 else n

sequenceInput: TSSASVTTCSNASGRRTSDVRRP
labelValue: n
//
sequenceInput: TSSASVTFTSNASGRRTSDVRRP
labelValue: n
//
sequenceInput: TSSASVTTTSNASGRRTSDVVRP
labelValue: y
//
sequenceInput: TSSASVTTVSNASGRRTSDVRRP
labelValue: n
//
sequenceInput: TSIASVTTTSNASGRRTSDVRRP
labelValue: n
//
sequenceInput: TSSASVTTTSNASGRRTSRVRRP
labelValue: n
//
sequenceInput: TSSQSVTTTSNASGRRTSDVRRP
labelValue: n
//
sequenceInput: TSSASVTTTSNASGRRTSDVSRP
labelValue: y
//
sequenceInput: TVSASVTTTSNASGRRTSDVRRP
labelValue: y
//
sequenceInput: TSSASVTTTSNATGRRTSDVRRP
labelValue: y
//
sequenceInput: TSSASVTTTSNASGRRTSDVRQP
labelValue: n
//
sequenceInput: TSSASVTTTSNASARRTSDVRRP
labelValue: y
//
sequenceInput: TSSASVTTTSNASGRRTSDVMRP
labelValue: y
//
sequenceInput: TSSASVTTTSNASGRRTSDVRRI
labelValue: y
//
sequenceInput: TSSASVTTTSNASGRRTSDARRP
labelValue: n
//
sequenceInput: TSSASVTTTSNASGRRYSDVRRP
labelValue: n
//
sequenceInput: TSSASVTTTSNASGRRTSIVRRP
labelValue: n
//
sequenceInput: TSSASVTTTSNASGRRTSYVRRP
labelValue: n
//
sequenceInput: TSSASVTTTSNASGRRTSTVRRP
labelValue: n
//
sequenceInput: TSSASVTTTSNASGRRTSDVQRP
labelValue: y
//
sequenceInput: TSSASVTETSNASGRRTSDVRRP
labelValue: y
//
sequenceInput: TSSASVTTTSNASGRRTKDVRRP
labelValue: n
//
sequenceInput: TSSANVTTTSNASGRRTSDVRRP
labelValue: n
//
sequenceInput: TLSASVTTTSNASGRRTSDVRRP
labelValue: n
//
sequenceInput: TSSASVTTTSNAWGRRTSDVRRP
labelValue: n
//
sequenceInput: TSSASVTTTSYASGRRTSDVRRP
labelValue: y
//
sequenceInput: ASSASVTTTSNASGRRTSDVRRP
labelValue: y
//
sequenceInput: TSSESVTTTSNASGRRTSDVRRP
labelValue: n
//
sequenceInput: TSSASVTTTSNASGRRTSDHRRP
labelValue: n
//
sequenceInput: TSSASVTTTSNASGRHTSDVRRP
labelValue: n
//
sequenceInput: TSSASVTTTSNASGRQTSDVRRP
labelValue: n
//
sequenceInput: TKSASVTTTSNASGRRTSDVRRP
labelValue: y
//
sequenceInput: TSSASVGTTSNASGRRTSDVRRP
labelValue: n
//
sequenceInput: TSSAIVTTTSNASGRRTSDVRRP
labelValue: n
//
sequenceInput: TSSASVTTTSNASGRRNSDVRRP
labelValue: n
//
sequenceInput: TSSASVTTTSNASGRRTSDVIRP
labelValue: y
//
sequenceInput: TSSASVTTTSNASGARTSDVRRP
labelValue: n
//
sequenceInput: TSSASVTQTSNASGRRTSDVRRP
labelValue: y
//
sequenceInput: TESASVTTTSNASGRRTSDVRRP
labelValue: y
//
sequenceInput: TSSASVTTTSNASGRRTSDVARP
labelValue: y
//
sequenceInput: TSSASVTTTSNARGRRTSDVRRP
labelValue: n
//
sequenceInput: TSSASVTTTQNASGRRTSDVRRP
labelValue: n
//
sequenceInput: TSSASVTTTSNASGRRTSDVRSP
labelValue: n
